molecular target: Human NPY5 receptor (Homo sapiens); test: Human NPY5 receptor binding assay ([125I]PYY, membrane protein); settings: [125I]PYY binding, read-out: hNPY5 IC50
pIC50: −log10 of the molar value.
Label true (1) for high-side pIC50 (at or above 6) and false (0) for low-side pIC50 (below it).

# compound, label value
rows = [
    ("O=C(CN1CCC(CCCC2CCNCC2)CC1)Nc1ccc(C2CCCCC2)cc1 [Compound 23]", "false (0)"),
    ("CC(O)C1CCN(CC(=O)Nc2ccc(C(=O)c3ccccc3)cc2)CC1 (stereo not drawn) [Compound 70]", "false (0)"),
    ("O=C(CN1C[C@H](O)C[C@H]1C(=O)O)Nc1ccc(C(=O)c2ccccc2)cc1 [Compound 109]", "false (0)"),
    ("O=C(CNCc1ccco1)Nc1ccc(C(=O)c2ccccc2)cc1 [Compound 166]", "true (1)"),
    ("COC(=O)[C@@H]1CCCN1CC(=O)Nc1ccc(C(=O)c2ccccc2)cc1 [Compound 107]", "false (0)"),
    ("O=C(CNCc1ccc(C(=O)O)cc1)Nc1ccc(C(=O)c2ccccc2)cc1 [Compound 222]", "false (0)"),
    ("O=C(CNCCc1c[nH]cn1)Nc1ccc(C(=O)c2ccccc2)cc1 [Compound 152]", "false (0)"),
    ("O=C(CN1CCC(O)C1)Nc1ccc(C(=O)c2ccccc2)cc1 (stereo not drawn) [Compound 103]", "false (0)"),
]

# input Say whether O=C(CN1CCC(CCCC2CCNCC2)CC1)Nc1ccc(C(=O)c2ccccc2)cc1 [Compound 37] shows pIC50 of 6 or more.
# output false (0)

# input Say whether COc1cc(CCNCC(=O)Nc2ccc(C(=O)c3ccccc3)cc2)ccc1O [Compound 202] shows pIC50 of 6 or more.
# output true (1)

# input Say whether COC(=O)C=C(C)NCC(=O)Nc1ccc(C2CCCCC2)cc1 [Compound 238] shows pIC50 of 6 or more.
# output true (1)

# input Say whether O=C(CN1CCC(CCC2CCNCC2)CC1)Nc1ccc(C2CCCCC2)cc1 [Compound 54] shows pIC50 of 6 or more.
# output false (0)

# input Say whether C#CC(C)(C)NCC(=O)Nc1ccc(C2CCCCC2)cc1 [Compound 213] shows pIC50 of 6 or more.
# output true (1)

# input Say whether CNC1CCN(CC(=O)Nc2ccc(C(=O)c3ccccc3)cc2)C1 (stereo not drawn) [Compound 203] shows pIC50 of 6 or more.
# output true (1)

# input Say whether CC1(C)CC(C(N)=O)C(C)(C)N1CC(=O)Nc1ccc(C(=O)c2ccccc2)cc1 (stereo not drawn) [Compound 119] shows pIC50 of 6 or more.
# output false (0)

# input Say whether O=C(CNCCO)Nc1ccc(C2CCCCC2)cc1 [Compound 176] shows pIC50 of 6 or more.
# output false (0)

# input Say whether COc1ccc(C(=O)C2CCN(CC(=O)Nc3ccc(C(=O)c4ccccc4)cc3)CC2)cc1 [Compound 122] shows pIC50 of 6 or more.
# output false (0)

----------
Molecular target: Human NPY5 receptor (Homo sapiens, UniProt Q15761)
Sequence (Q15761 1-445): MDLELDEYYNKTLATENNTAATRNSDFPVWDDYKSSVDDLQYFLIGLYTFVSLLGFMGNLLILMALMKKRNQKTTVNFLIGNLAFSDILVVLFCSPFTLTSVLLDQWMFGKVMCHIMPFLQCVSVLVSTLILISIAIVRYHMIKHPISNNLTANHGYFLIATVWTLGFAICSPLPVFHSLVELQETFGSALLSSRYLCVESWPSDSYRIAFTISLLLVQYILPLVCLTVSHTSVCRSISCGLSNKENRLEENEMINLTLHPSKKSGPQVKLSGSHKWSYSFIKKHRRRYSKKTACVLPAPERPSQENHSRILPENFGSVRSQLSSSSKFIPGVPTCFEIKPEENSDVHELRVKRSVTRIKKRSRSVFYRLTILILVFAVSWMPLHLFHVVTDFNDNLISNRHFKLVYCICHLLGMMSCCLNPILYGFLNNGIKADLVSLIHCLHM
Assay: Human NPY5 receptor binding assay ([125I]PYY, membrane protein)
Conditions: hNPY5 IC50, [125I]PYY
Where a name gives a salt, the structure may show the parent alone.
measured quantity: IC50 (nM)
Write down the numeric answer in nM and omit the unit.

# input May I ask what IC50 has been recorded for Cc1ccc(C2(O)CCN(CC(=O)Nc3ccc(C4CCCCC4)cc3)CC2)cc1 [Compound 298, hydrochloride] ?
# output 30

# input May I ask what IC50 has been recorded for CC(=O)NCC1(c2ccccc2)CCN(CC(=O)Nc2ccc(C3CCCCC3)cc2)CC1.O=C(O)C(=O)O ?
# output 32

# input May I ask what IC50 has been recorded for O=C(Nc1ccc(-c2ccccc2)cc1)C(c1ccccc1)N1CCC(n2c(=O)[nH]c3ccccc32)CC1 (centres unmarked) ?
# output 32

# input May I ask what IC50 has been recorded for O=C(Nc1ccc(C2CCCCC2)cc1)C(c1ccccc1)N1CCC(n2c(=O)[nH]c3ccccc32)CC1 (centres unmarked) ?
# output 35

# input May I ask what IC50 has been recorded for CCCOC1(c2ccccc2)CCN(CC(=O)Nc2ccc(C3CCCCC3)cc2)CC1 [Compound 294, hydrochloride] ?
# output 51

----------
molecular target: Human NPY5 receptor (Homo sapiens, UniProt Q15761); experiment: Human NPY5 receptor binding assay ([125I]PYY, membrane protein); conditions: [125I]PYY, read-out: hNPY5 IC50
Where a name gives a salt, the structure may show the parent alone.
Listed molecules paired with reported IC50
Write down the numeric answer in nM and omit the unit.

The cases that follow already have their IC50 on record.
# molecule, recorded measurement
data = [
    ("CC(=O)NC1CCN(CC(=O)Nc2ccc(C(=O)c3ccccc3)cc2)C1.O=C(O)C(=O)O (stereo not shown)", 150),
    ("O=C(CN1CCC(n2c(=O)[nH]c3ccccc32)CC1)Nc1ccccc1-c1ccccc1 [Compound 324, hydrochloride]", 390),
]

# input May I ask what IC50 has been recorded for O=C(CNCCCn1c(=O)[nH]c2ccccc21)Nc1ccc(-c2ccccc2)cc1 ?
# output 890

# input May I ask what IC50 has been recorded for CCCCCCc1ccc(NC(=O)CN2CCC(n3c(=O)[nH]c4ccccc43)CC2)cc1 ?
# output 120

# input May I ask what IC50 has been recorded for O=C(CN1CCC(n2c(=O)[nH]c3ccccc32)CC1)Nc1ccc(Br)c(Cl)c1 [Compound 342, reference compound] ?
# output 276

# input May I ask what IC50 has been recorded for CN(C)c1cccc(NC(=O)CN2CCC(n3c(=O)[nH]c4ccccc43)CC2)c1 [Compound 338, reference compound] ?
# output 910

----------
Target: Human NPY5 receptor (Homo sapiens)
Sequence (Q15761 1-445): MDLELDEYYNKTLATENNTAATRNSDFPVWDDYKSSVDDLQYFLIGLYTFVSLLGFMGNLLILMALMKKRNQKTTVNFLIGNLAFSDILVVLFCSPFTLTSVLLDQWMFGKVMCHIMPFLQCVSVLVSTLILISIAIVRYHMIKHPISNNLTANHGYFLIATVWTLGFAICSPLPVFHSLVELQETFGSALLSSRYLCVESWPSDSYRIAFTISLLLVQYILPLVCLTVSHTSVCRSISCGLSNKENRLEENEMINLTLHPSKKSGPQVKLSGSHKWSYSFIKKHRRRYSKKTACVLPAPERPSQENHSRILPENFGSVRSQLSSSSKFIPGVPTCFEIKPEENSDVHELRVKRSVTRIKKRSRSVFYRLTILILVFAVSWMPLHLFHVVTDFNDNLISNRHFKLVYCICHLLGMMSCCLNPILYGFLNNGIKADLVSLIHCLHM
Test: Human NPY5 receptor binding assay ([125I]PYY, membrane protein)
Details: [125I]PYY binding, read-out: hNPY5 IC50
measured quantity: pIC50
To interpret pIC50, take it as minus log10 of a concentration measured in moles per litre.

# input May I ask what pIC50 has been recorded for O=C(CNCCCn1ccnc1)Nc1ccc(C(=O)c2ccccc2)cc1 ?
# output 6.17

----------
Target: Human NPY5 receptor (Homo sapiens, UniProt Q15761)
Sequence (Q15761 1-445): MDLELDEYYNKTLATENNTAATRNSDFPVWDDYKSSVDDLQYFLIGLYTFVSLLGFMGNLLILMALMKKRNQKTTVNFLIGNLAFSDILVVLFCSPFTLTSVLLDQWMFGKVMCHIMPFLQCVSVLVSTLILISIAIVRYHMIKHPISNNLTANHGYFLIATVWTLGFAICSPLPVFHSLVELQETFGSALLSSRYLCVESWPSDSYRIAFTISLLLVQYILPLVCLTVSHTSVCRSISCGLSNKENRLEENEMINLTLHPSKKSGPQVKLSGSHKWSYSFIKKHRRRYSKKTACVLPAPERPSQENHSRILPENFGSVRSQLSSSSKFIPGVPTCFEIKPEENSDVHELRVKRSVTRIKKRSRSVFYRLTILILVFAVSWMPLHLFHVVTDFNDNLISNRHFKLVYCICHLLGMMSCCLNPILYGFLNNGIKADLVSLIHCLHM
Test: Human NPY5 receptor binding assay ([125I]PYY, membrane protein)
Conditions: [125I]PYY, read-out: hNPY5 IC50
Method: C. Human and Rat NPY5 Receptor Binding Assays Binding assays are performed on GF/C Millipore 96well plates pretreated with 0.02% polyethylenimine. The binding buffer is 25 mM Tris, 120 mM NaCl, 5 mM KCl, 1.2 mM KH2PO4, 2.5 mM CaCl2, 1.2 mM MgSO4, 0.1% BSA and 0.5 mg/ml bacitracin, pH 7.4. Samples consist of membrane protein, 75-100 pM [125I]PYY (porcine, NEN-DuPont) and drug dilution. […] The amount of radioactivity in each well is quantitated with either gamma counting or liquid scintillation.
Where a name gives a salt, the structure may show the parent alone.
measured quantity: IC50

The cases that follow already have their IC50 on record.
# compound, IC50
rows = [
    ("CCCc1ccc(NC(=O)CN2CCC(n3c(=O)[nH]c4ccccc43)CC2)cc1", "63 nM"),
    ("CCC(=O)C1(c2ccccc2)CCN(CC(=O)Nc2ccc(-c3ccccc3)cc2)CC1 [Compound 317, hydrochloride]", "10 nM"),
    ("NC(=O)C1CCCN1CC(=O)Nc1ccc(C2CCCCC2)cc1 (centres unmarked) [Compound 297, hydrochloride]", "32 nM"),
    ("COc1ccc(NC(=O)CN2CCC(n3c(=O)[nH]c4ccccc43)CC2)cc1 [Compound 361, reference compound]", "410 nM"),
    ("Cl.O=C(CN1CCC(n2c(=O)[nH]c3ccccc32)CC1)NCC1CCCCC1 [Compound 282, hydrochloride]", "380 nM"),
    ("O=C(CN1CCCCC1)Nc1ccc(-c2ccccc2)cc1", "5400 nM"),
]

# input May I ask what IC50 has been recorded for Cl.N#CC(c1ccccc1)C1CCN(CC(=O)Nc2ccc(C3CCCCC3)cc2)CC1 (centres unmarked) [Compound 300, hydrochloride] ?
# output 13 nM

# input May I ask what IC50 has been recorded for O=C(CN1CCC(n2c(=O)[nH]c3ccccc32)CC1)Nc1cccc(-c2ccccc2)c1 [Compound 323, hydrochloride] ?
# output 26 nM

Measured values drawn from patent US6410792B1 for this set.
